These measurements were taken from patent US20240158446A1.

Target: GDP-bound KRAS wild-type protein (Homo sapiens, UniProt P01116)
Sequence (P01116 whole entry): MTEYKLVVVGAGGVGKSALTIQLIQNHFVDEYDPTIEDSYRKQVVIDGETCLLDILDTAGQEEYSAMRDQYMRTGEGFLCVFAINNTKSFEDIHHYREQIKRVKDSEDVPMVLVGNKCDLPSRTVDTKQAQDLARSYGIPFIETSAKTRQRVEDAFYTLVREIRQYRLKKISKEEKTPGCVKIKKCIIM
Protocol Notes: Binding to KRAS by surface plasmon resonance (SPR), Single Cycle Kinetics
Assay Setup: SPR, Single Cycle Kinetics, GDP-bound KRAS wild-type protein; read-out: KRAS KD
Readings of pKd for the listed molecules
# log scale: pKd equals minus log10 of the concentration in mol/L

| Molecule | Readout | Obs Value |
| --- | --- | --- |
| CCO[C@@H]1C[C@H]2C(=O)NC3(CCC3)C(=O)N(C)[C@@H](C3CCCC3)C(=O)N(C)[C@H](C(=O)N3CCOCC3)CC(=O)N(C)[C@@H](Cc3ccc(Cl)c(Cl)c3)C(=O)N[C@@H]([C@@H](C)CC)C(=O)N(C)CC(=O)N(C)[C@H]3CCCCCN(C3=O)[C@@H](Cc3ccc(F)cc3)C(=O)N(C)CC(=O)N[C@@H](CCc3cc(F)c(C(F)(F)F)c(F)c3)C(=O)N2C1 | pKd | 9.37 |

q: Dear colleague, I am looking for the recorded pKd of the following molecule: `CCC[C@H]1C(=O)N[C@@H]([C@@H](C)CC)C(=O)N2CCC[C@H]2C(=O)N(C)[C@H]2C/C=C\CCN(C2=O)[C@@H](CC2CCCCC2)C(=O)N(C)CC(=O)N[C@@H](CCc2ccc(C(F)(F)F)c(OC)c2)C(=O)N2C[C@@H](C)C[C@H]2C(=O)N(C)C2(CCC2)C(=O)N(C)[C@@H](C2CCCC2)C(=O)N(C)[C@H](C(=O)N(C)C)CC(=O)N1C`
a: 9.07

====

Target: GDP-bound KRAS wild-type protein (Homo sapiens)
Protocol Notes: Binding to KRAS by surface plasmon resonance (SPR), Single Cycle Kinetics
Assay Setup: SPR, Single Cycle Kinetics, GDP-bound KRAS wild-type protein; read-out: KRAS KD
Readout: Kd (nM)
# value in nM; strip the unit string

Before answering, review these 2 worked examples.
| Molecule | Obs Value |
| --- | --- |
| CCO[C@@H]1C[C@H]2C(=O)NC3(CC(C)(C)C3)C(=O)N(C)[C@@H](C3CCCC3)C(=O)N(C)[C@H](C(=O)N(C)CC)CC(=O)N(C)[C@@H](CC(F)F)C(=O)N[C@@H]([C@@H](C)CC)C(=O)N(C)CC(=O)N(C)[C@H]3C/C=C\CCN(C3=O)[C@@H](Cc3ccc(C(F)(F)F)cc3)C(=O)N(C)CC(=O)N[C@@H](CCc3ccc(C(F)(F)F)c(OC)c3)C(=O)N2C1 | 0.083 |
| CCC[C@H]1C(=O)N[C@@H]([C@@H](C)CC)C(=O)N(C)CC(=O)N(C)[C@H]2C/C=C\CCN(C2=O)[C@@H](CC2CCC(F)(F)CC2)C(=O)N(C)CC(=O)N[C@@H](CCc2ccc(C(F)(F)F)c(OC)c2)C(=O)N2C[C@H](OCC)C[C@H]2C(=O)NC2(CC(C)(C)C2)C(=O)N(C)[C@@H](C(CC)CC)C(=O)N(C)[C@H](C(=O)N(C)C)CC(=O)N1C | 0.93 |

q: Returns the measured Kd for the input compound. Input: `CCCN(C)C(=O)[C@@H]1CC(=O)N(C)[C@@H](COCC)C(=O)N[C@@H]([C@@H](C)CC)C(=O)N(C)CC(=O)N(C)[C@H]2C/C=C\CCN(C2=O)[C@@H](Cc2ccc(C(F)(F)F)cc2)C(=O)N(C)CC(=O)N[C@@H](CCc2cc(F)c(C(F)(F)F)c(F)c2)C(=O)N2C[C@H](OCC)C[C@H]2C(=O)NC2(CCC2)C(=O)N(C)[C@@H](C2CCCC2)C(=O)N1C`
a: 0.06
